- ASSAY: Acute toxicity in dd-mice
- RUN_PARAMETERS: mouse, in vivo
REPORTED_METRIC: LD50 (mg/kg)
Report only the number, with the unit mg/kg understood.

[[record]]
compound = "CNC1C(O)C(OC2C(N)CC(N)C(OC3OC(CN(C)C)CCC3N)C2O)OCC1(C)O (centres unmarked)"
reported_metric = "LD50"
quantitative_readout = 25.9


Here's the next entry for you.
Form: compound = CNC1CC(N)C(OC2OCC(C)(O)C(NC)C2O)C(O)C1OC1OC(CN)CCC1N (centres unmarked) ; LD50 = 106
